# Test system: Pseudomonas aeruginosa
# test.details: Susceptibility testing against Pseudomonas aeruginosa ATCC 27853; S=Susceptible
# Type: functional, organism-based
measured.parameter: Activity

| compound | reported.result |
| --- | --- |
| O=C(O)c1cn(C2CC2)c2cc(N3CCNCC3)c(F)cc2c1=O | Susceptible |
| CC(C)(O/N=C(\C(=O)N[C@@H]1C(=O)N2C(C(=O)[O-])=C(C[n+]3ccccc3)CS[C@H]12)c1csc(N)n1)C(=O)O | Susceptible |
| C[C@H]1[C@H](NC(=O)/C(=N\OC(C)(C)C(=O)O)c2csc(N)n2)C(=O)N1S(=O)(=O)O | Susceptible |
| CCN1CCN(C(=O)N[C@@H](C(=O)N[C@@H]2C(=O)N3[C@@H]2SC(C)(C)[C@@H]3C(=O)O)c2ccccc2)C(=O)C1=O.C[C@]1(Cn2ccnn2)[C@H](C(=O)O)N2C(=O)C[C@H]2S1(=O)=O | Susceptible |
| CC(O)[C@H]1C(=O)N2C(C(=O)O)=C(SCCNC=N)C[C@H]12 (single isomer, unassigned) | Susceptible |
| CN(C)[C@@H]1C(O)=C(C(N)=O)C(=O)[C@@]2(O)C(O)=C3C(=O)c4c(O)cccc4[C@@](C)(O)[C@H]3C[C@@H]12 | Susceptible |
| NCC[C@H](O)C(=O)N[C@@H]1C[C@H](N)[C@@H](O[C@H]2O[C@H](CN)[C@@H](O)[C@H](O)[C@H]2O)[C@H](O)[C@H]1O[C@H]1O[C@H](CO)[C@@H](O)[C@H](N)[C@H]1O | Susceptible |
